These measurements were taken from patent US5593988A.

Test system: bone resorption (parietal bone)
Test: Bone resorption-inhibitory activity (45Ca release from newborn mouse parietal bone, hPTH (1-34) stimulated, method of Raisz)
Assay type: cell-based, ICR mouse
Details: read-out: bone resorption-inhibitory action, % against control
Experimental: The method for determining the bone resorption-inhibitory activity of the Compound (I) and the results are shown in the following. Bone resorption-inhibitory activity […] Using the bone obtained from the same mouse and treated in the same manner without the test compound as a control, the ratio (%) against the control was calculated according to the following equation. […] The average of these values obtained from four pairs from each group was calculated.
Returns True if the recorded inhibition at 20 µM is greater than or equal to 30%, and False otherwise.

COc1ccccc1NC(=O)OCC1N=C(c2ccccc2)c2ccccc2-n2c(C)nnc21 (centres unmarked) ... True
CCc1cc2c(s1)-n1c(C)nnc1C(OC(=O)Nc1cccc(C)c1)N=C2c1ccc(OC)cc1 (centres unmarked) ... False
Cc1nnc2n1-c1sc(CCCN3CCOCC3)cc1C(c1ccccc1Cl)=NC2C (centres unmarked) ... True

[in] Does inhibition at 20 µM meet or surpass 30% for Cc1nnc2n1-c1ccccc1C(c1ccc(Cl)cc1)=NC2Cc1c[nH]c2ccccc12 (centres unmarked) ?
[out] True
